# test.target: USP7 (Homo sapiens (Human), UniProt Q93009)
# Sequence (Q93009 whole entry): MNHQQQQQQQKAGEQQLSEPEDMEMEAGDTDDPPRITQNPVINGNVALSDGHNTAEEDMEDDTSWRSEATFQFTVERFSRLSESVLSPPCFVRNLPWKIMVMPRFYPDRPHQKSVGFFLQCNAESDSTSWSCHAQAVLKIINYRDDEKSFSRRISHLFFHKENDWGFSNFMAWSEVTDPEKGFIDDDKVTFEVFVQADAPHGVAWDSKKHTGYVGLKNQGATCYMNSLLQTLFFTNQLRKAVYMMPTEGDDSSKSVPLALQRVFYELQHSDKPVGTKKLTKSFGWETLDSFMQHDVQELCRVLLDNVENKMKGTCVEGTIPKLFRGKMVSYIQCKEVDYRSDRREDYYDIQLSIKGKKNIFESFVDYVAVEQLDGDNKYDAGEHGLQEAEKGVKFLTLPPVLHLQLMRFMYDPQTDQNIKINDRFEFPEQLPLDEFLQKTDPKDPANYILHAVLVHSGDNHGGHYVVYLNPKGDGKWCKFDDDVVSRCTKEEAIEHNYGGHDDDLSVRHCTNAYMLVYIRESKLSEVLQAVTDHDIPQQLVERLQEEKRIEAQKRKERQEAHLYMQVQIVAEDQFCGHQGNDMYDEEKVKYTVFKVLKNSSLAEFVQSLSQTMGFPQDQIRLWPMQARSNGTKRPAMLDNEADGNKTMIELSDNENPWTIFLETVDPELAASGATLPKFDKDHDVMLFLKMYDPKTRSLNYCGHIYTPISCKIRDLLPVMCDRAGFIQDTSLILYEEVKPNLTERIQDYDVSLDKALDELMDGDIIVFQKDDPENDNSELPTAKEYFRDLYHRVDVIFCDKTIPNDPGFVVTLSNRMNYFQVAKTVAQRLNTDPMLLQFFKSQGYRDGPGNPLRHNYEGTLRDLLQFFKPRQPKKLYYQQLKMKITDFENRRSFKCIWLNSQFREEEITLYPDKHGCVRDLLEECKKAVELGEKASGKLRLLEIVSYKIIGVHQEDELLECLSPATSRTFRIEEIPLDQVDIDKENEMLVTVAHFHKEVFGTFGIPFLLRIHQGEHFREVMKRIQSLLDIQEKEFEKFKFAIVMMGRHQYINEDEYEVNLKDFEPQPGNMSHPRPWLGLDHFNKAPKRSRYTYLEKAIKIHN
# test.details: USP7 inhibition assay with Ub-Rho 110 substrate (fluorescence progress curves)
# Assay type: biochemical
# conditions: 100 μM compound; 1 nM USP7, 200 nM Ub-Rho 110, 3% DMSO, triplicate
Entries and their measured inhibition at 100 µM follow.
observed.property: inhibition at 100 µM

>  <compound>
COc1ccc(C2C(C#N)=C(N)Oc3n[nH]c(-c4cccs4)c32)cc1Cl (racemic)

>  <result>
55%

$$$$
>  <compound>
N#CC1=C(N)Oc2n[nH]c(-c3cccs3)c2C1c1cccc(Br)c1 (stereo not shown)

>  <result>
0%

$$$$
>  <compound>
COc1ccc(C2C(C#N)=C(N)Oc3n[nH]c(-c4cc(C)sc4C)c32)cc1I (stereo not shown)

>  <result>
29%

$$$$
>  <compound>
CCOCNC1=C(C#N)C(c2ccc(OC)c(Br)c2)c2c(-c3cccs3)nn(C)c2O1 (stereo not shown)

>  <result>
0%

$$$$
>  <compound>
COc1ccc(C2C(C#N)=C(N)Oc3n[nH]c(-c4cc(C)sc4C)c32)cc1Br (stereo not shown)

>  <result>
32%

$$$$
>  <compound>
N#CC1=C(N)Oc2n[nH]c(-c3cccs3)c2C1c1ccc(Cl)cc1 (stereo not shown)

>  <result>
31%

$$$$
>  <compound>
N#CC1=C(N)Oc2n[nH]c(-c3cccs3)c2C1c1cc(Br)c(OCc2ccccc2)c(Br)c1 (stereo not shown)

>  <result>
26%

$$$$
>  <compound>
COc1cc(C)c(C2C(C#N)=C(N)Oc3n[nH]c(-c4cccs4)c32)cc1C(C)C (racemic)

>  <result>
95%

$$$$
>  <compound>
COc1ccc(C2C(C#N)=C(N)Oc3n[nH]c(-c4ccc(Cl)cc4)c32)cc1Br (racemic)

>  <result>
66%

$$$$
>  <compound>
COc1ccc(C2C(C#N)=C(N)Oc3n[nH]c(-c4ccn(C)c4)c32)cc1I (racemic)

>  <result>
89%

$$$$
>  <compound>
N#CC1=C(N)Oc2n[nH]c(-c3cccs3)c2C1c1ccc2c(c1)CCO2 (racemic)

>  <result>
45%

$$$$
>  <compound>
COc1ccc(C2C(C#N)=C(N)Oc3n[nH]c(-c4cccnc4)c32)cc1I (racemic)

>  <result>
83%

$$$$
>  <compound>
COc1ccc(C2C(C#N)=C(N)Oc3n[nH]c(-c4ccccn4)c32)cc1Br (racemic)

>  <result>
85%

$$$$
>  <compound>
CNC1=C(C#N)C(c2ccc(OC)c(Br)c2)c2c(n[nH]c2-c2cccs2)O1 (stereo not shown)

>  <result>
47%

$$$$
>  <compound>
COc1ccc(C2C(C#N)=C(N)Oc3n[nH]c(-c4ccsc4)c32)cc1Br (racemic)

>  <result>
72%

$$$$
>  <compound>
Cc1ccc(C2C(C#N)=C(N)Oc3n[nH]c(-c4ccc(Cl)cc4)c32)cc1C (stereo not shown)

>  <result>
34%

$$$$

---

Overview of reported pIC50 across a group of compounds:
# test.target: USP7 (Homo sapiens (Human))
pIC50: −log10 of the molar value.
observed.property: pIC50

>  <compound>
COc1ccc(C2C(C#N)=C(N)Oc3n[nH]c(-c4cccnc4)c32)cc1I (racemic)

>  <test.target>
USP7 (Homo sapiens (Human))

>  <quantitative.readout>
5.11

$$$$
>  <compound>
N#CC1=C(N)Oc2n[nH]c(-c3cccs3)c2C1c1ccc(O)c(C(F)(F)F)c1 (racemic) [Compound 6q]

>  <test.target>
USP7 (Homo sapiens (Human))

>  <quantitative.readout>
4.96

$$$$
>  <compound>
COc1ccc(C2C(C#N)=C(N)Oc3n[nH]c(-c4cccs4)c32)cc1Cl (racemic)

>  <test.target>
USP7 (Homo sapiens (Human))

>  <quantitative.readout>
5.15

$$$$
>  <compound>
COc1ccc(C2C(C#N)=C(N)Oc3n[nH]c(-c4cccs4)c32)cc1I (racemic)

>  <test.target>
USP7 (Homo sapiens (Human))

>  <quantitative.readout>
5.74

$$$$
>  <compound>
COc1ccc(C2C(C#N)=C(N)Oc3n[nH]c(-c4cccs4)c32)cc1F (racemic)

>  <test.target>
USP7 (Homo sapiens (Human))

>  <quantitative.readout>
5.15

$$$$
>  <compound>
COc1ccc(C2C(C#N)=C(N)Oc3n[nH]c(-c4ccn(C)c4)c32)cc1Br (racemic)

>  <test.target>
USP7 (Homo sapiens (Human))

>  <quantitative.readout>
5.72

$$$$
>  <compound>
COc1ccc(C2C(C#N)=C(N)Oc3n[nH]c(-c4ccsc4)c32)cc1Br (racemic)

>  <test.target>
USP7 (Homo sapiens (Human))

>  <quantitative.readout>
5.09

$$$$
>  <compound>
COc1ccc(C2C(C#N)=C(N)Oc3n[nH]c(-c4ccc(Cl)cc4)c32)cc1Br (racemic)

>  <test.target>
USP7 (Homo sapiens (Human))

>  <quantitative.readout>
5.12

$$$$

---

# test.target: USP7 (Homo sapiens (Human), UniProt Q93009)
# test.details: USP7 inhibition assay with Ub-Rho 110 substrate (fluorescence progress curves)
# Type: biochemical
# conditions: 100 μM compound; 1 nM USP7, 200 nM Ub-Rho 110, 3% DMSO, triplicate

>  <molecule>
COc1ccc(C2C(C#N)=C(N)Oc3n[nH]c(-c4ccn(C)c4)c32)cc1Br (racemic) [Compound 7l]

>  <unit.annotation>
%

>  <inhibition at 100 µM>
88

$$$$
>  <molecule>
N#CC1=C(N)Oc2n[nH]c(-c3cccs3)c2C1c1ccc([N+](=O)[O-])cc1 (racemic) [Compound 6g]

>  <unit.annotation>
%

>  <inhibition at 100 µM>
57

$$$$
>  <molecule>
COc1ccc(C2C(C#N)=C(N)Oc3c2c(-c2cccs2)nn3C)cc1I (stereo not drawn) [Compound 9b]

>  <unit.annotation>
%

>  <inhibition at 100 µM>
0

$$$$

---

# test.target: USP7 (Homo sapiens (Human))
# test.details: USP7 inhibition assay with Ub-Rho 110 substrate (fluorescence progress curves)
# Format: biochemical
# conditions: 100 μM compound; 1 nM USP7, 200 nM Ub-Rho 110, 3% DMSO, triplicate
Mark 1 for reported inhibition at 100 µM of 70% or greater; mark -1 for anything smaller.

>  <compound>
N#CC1=C(N)Oc2n[nH]c(-c3cccs3)c2C1c1ccc(N=[N+]=[N-])c(I)c1 (centres unmarked)

>  <test.target>
USP7 (Homo sapiens (Human))

>  <category.label>
-1

$$$$
>  <compound>
C#CCOc1ccc(C2C(C#N)=C(N)Oc3n[nH]c(-c4cccs4)c32)cc1Br (racemic)

>  <test.target>
USP7 (Homo sapiens (Human))

>  <category.label>
1

$$$$
>  <compound>
COc1ccc(C2C(C#N)=COc3n[nH]c(-c4cccs4)c32)cc1Br (centres unmarked)

>  <test.target>
USP7 (Homo sapiens (Human))

>  <category.label>
-1

$$$$
>  <compound>
COc1ccc(C2C(C#N)=C(N)Oc3n[nH]c(-c4cccs4)c32)cc1 (centres unmarked)

>  <test.target>
USP7 (Homo sapiens (Human))

>  <category.label>
-1

$$$$
>  <compound>
CCCOc1ccc(C2C(C#N)=C(N)Oc3n[nH]c(-c4cccs4)c32)cc1Br (centres unmarked)

>  <test.target>
USP7 (Homo sapiens (Human))

>  <category.label>
-1

$$$$
>  <compound>
COc1ccc(C2C(C#N)=C(N)Oc3n[nH]c(-c4cccs4)c32)cc1I (racemic)

>  <test.target>
USP7 (Homo sapiens (Human))

>  <category.label>
1

$$$$
>  <compound>
COc1ccc(C2C(C#N)=C(N)Oc3n[nH]c(-c4cccs4)c32)cc1F (racemic)

>  <test.target>
USP7 (Homo sapiens (Human))

>  <category.label>
-1

$$$$
>  <compound>
N#CC1=C(N)Oc2n[nH]c(-c3cccs3)c2C1c1ccc(O)cc1 (centres unmarked)

>  <test.target>
USP7 (Homo sapiens (Human))

>  <category.label>
-1

$$$$
>  <compound>
N#CC1=C(N)Oc2n[nH]c(-c3cccs3)c2C1c1ccc(O)c(C(F)(F)F)c1 (racemic)

>  <test.target>
USP7 (Homo sapiens (Human))

>  <category.label>
1

$$$$
>  <compound>
Cc1ccc(C2C(C#N)=C(N)Oc3n[nH]c(-c4cccs4)c32)cc1 (centres unmarked)

>  <test.target>
USP7 (Homo sapiens (Human))

>  <category.label>
-1

$$$$
>  <compound>
COc1ccc(C2C(C#N)=C(N)Oc3nn(C(C)=O)c(-c4cccs4)c32)cc1Br (centres unmarked)

>  <test.target>
USP7 (Homo sapiens (Human))

>  <category.label>
1

$$$$
>  <compound>
C=CCN1CCc2ccc(C3C(C#N)=C(N)Oc4n[nH]c(-c5cccs5)c43)cc21 (centres unmarked)

>  <test.target>
USP7 (Homo sapiens (Human))

>  <category.label>
-1

$$$$
>  <compound>
COc1ccc(C2C(C#N)=C(N)Oc3n[nH]c(-c4cccnc4)c32)cc1Br (racemic)

>  <test.target>
USP7 (Homo sapiens (Human))

>  <category.label>
1

$$$$
>  <compound>
N#CC1=C(N)Oc2n[nH]c(-c3cccs3)c2C1c1ccc2c(c1)-c1ccccc1C2 (centres unmarked)

>  <test.target>
USP7 (Homo sapiens (Human))

>  <category.label>
-1

$$$$
>  <compound>
COc1ccc(C2C(C#N)=C(N)Oc3c2c(-c2cccs2)nn3C)cc1Br (centres unmarked)

>  <test.target>
USP7 (Homo sapiens (Human))

>  <category.label>
-1

$$$$
